# TGT: human Edg-1 receptor (Homo sapiens, UniProt P21453)
# Construct: expressed in transfected cells; membrane preparation
# Sequence (P21453 whole entry): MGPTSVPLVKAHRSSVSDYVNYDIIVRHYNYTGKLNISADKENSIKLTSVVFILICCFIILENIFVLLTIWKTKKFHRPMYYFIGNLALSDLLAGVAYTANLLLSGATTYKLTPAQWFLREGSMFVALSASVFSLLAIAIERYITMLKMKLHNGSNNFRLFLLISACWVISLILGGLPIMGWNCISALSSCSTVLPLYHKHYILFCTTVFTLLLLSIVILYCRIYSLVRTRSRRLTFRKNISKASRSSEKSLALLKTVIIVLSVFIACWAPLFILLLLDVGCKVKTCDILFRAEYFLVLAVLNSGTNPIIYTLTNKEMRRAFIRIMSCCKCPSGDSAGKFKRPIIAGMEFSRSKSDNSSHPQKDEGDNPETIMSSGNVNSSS
# TEST: GTP-γ-S assay using human Edg-1 receptors (scintillation proximity assay, membrane preparation from CHO Flp-In cell line)
# Type: biochemical
# CONDITIONS_USED: example compound at 10 μM; relative to 10 μM S1P; GTP-γ-S SPA, human Edg-1 membranes
PROPERTY: % Activation (Edg-1 receptor activation in percent of the activation by 10 μM S1P) (%)

>>> recorded_number("CCCOc1nc(Cc2ccc(Cl)cc2)nc2oc(-c3cc(C)c(OCCCNCCC(=O)O)c(C)c3)nc12 [Example 224]")
113
>>> recorded_number("Fc1cccc(-c2nc3c(OCC4CC4)nc(Cc4ccc(Cl)cc4)nc3o2)c1 [Example 104]")
87
>>> recorded_number("CCOc1nc(Cc2ccc(Cl)cc2)nc2oc(-c3cccc(OCC(=O)N4CCC[C@H]4C(=O)O)c3)nc12 [Example 270]")
104
>>> recorded_number("CCCOc1nc(CN2CCC(F)(F)CC2)nc2oc(-c3cccc(Cl)c3)nc12 [Example 28]")
102

* * *

# TGT: human Edg-1 receptor (Homo sapiens, UniProt P21453)
# Construct: expressed in transfected cells; membrane preparation
# TEST: GTP-γ-S assay using human Edg-1 receptors (scintillation proximity assay, membrane preparation from CHO Flp-In cell line)
# Format: biochemical
# CONDITIONS_USED: example compound at 10 μM; relative to 10 μM S1P; GTP-γ-S SPA, human Edg-1 membranes
PROPERTY: % Activation (Edg-1 receptor activation in percent of the activation by 10 μM S1P) (%)

# example entries with known answers
>>> recorded_number("CCOc1nc(Cc2ccc(Cl)cc2)nc2oc(-c3cccc(OCC(=O)NC(C)(C)C(=O)O)c3)nc12")
53
>>> recorded_number("CCCOc1nc(CN2CCCOCC2)nc2oc(-c3cccc(OC)c3)nc12")
116
>>> recorded_number("CCCOc1nc(CN2CCC(F)(F)CC2)nc2oc(-c3ccccc3)nc12")
92
>>> recorded_number("Cc1cccc(-c2nc3c(OCCCF)nc(Cc4ccc(Cl)cc4)nc3o2)c1")
107
>>> recorded_number("C=CCOc1nc(Cc2ccc(Cl)cc2)nc2oc(-c3cccnc3)nc12")
73

A: CCCOc1nc(CN2CCOCC2)nc2oc(-c3cccc(C)c3)nc12
B: FCCOc1nc(CN2CCOCC2)nc2oc(-c3cccc(F)c3)nc12
Exercise: Lab note: check whether A or B shows the higher recorded % Activation (Edg-1 receptor activation in percent of the activation by 10 μM S1P). Give the label of your selection.
Key: A

* * *

# TGT: human Edg-1 receptor (Homo sapiens)
# Construct: expressed in transfected cells; membrane preparation
# TEST: GTP-γ-S assay using human Edg-1 receptors (scintillation proximity assay, membrane preparation from CHO Flp-In cell line)
# Assay type: biochemical
# CONDITIONS_USED: example compound at 10 μM; relative to 10 μM S1P; GTP-γ-S SPA, human Edg-1 membranes
PROPERTY: % Activation (Edg-1 receptor activation in percent of the activation by 10 μM S1P) (%)

>>> recorded_number("FCCCOc1nc(Cc2ccc(Cl)cc2)nc2oc(-c3cccnc3)nc12 [Example 125]")
112
>>> recorded_number("CCOc1nc(Cc2ccc(Cl)cc2)nc2oc(-c3cc(C)c(OCC(=O)NCCS(N)(=O)=O)c(C)c3)nc12")
112
>>> recorded_number("CCCOc1nc(Cc2ccc(Cl)cc2)nc2oc(-c3cccc(C)c3C)nc12")
89

A: Cc1cccc(-c2nc3c(OC4COC4)nc(CN4CCOCC4)nc3o2)c1
B: CCCOc1nc(CN2CC(C(=O)O)C2)nc2oc(-c3cccc(F)c3)nc12
Exercise: // compare: A vs B , metric % Activation (Edg-1 receptor activation in percent of the activation by 10 μM S1P), want the smaller Give the label of your selection.
Key: B
(B: 24%, A: 116%)

* * *

# TGT: human Edg-1 receptor (Homo sapiens, UniProt P21453)
# Construct: expressed in transfected cells; membrane preparation
# TEST: GTP-γ-S assay using human Edg-1 receptors (scintillation proximity assay, membrane preparation from CHO Flp-In cell line)
# Format: biochemical
# CONDITIONS_USED: example compound at 10 μM; relative to 10 μM S1P; GTP-γ-S SPA, human Edg-1 membranes
PROPERTY: % Activation (Edg-1 receptor activation in percent of the activation by 10 μM S1P) (%)

>>> recorded_number("CCCOc1nc(CN2CC3CC2CO3)nc2oc(-c3cccc(F)c3)nc12 (centres unmarked)")
48
>>> recorded_number("CCOc1nc(Cc2ccc(Cl)cc2)nc2oc(-c3cc(C)c(OCC(O)CN4CCOCC4)c(C)c3)nc12 (centres unmarked)")
102
>>> recorded_number("CCOc1nc(CC2CCCCC2)nc2oc(-c3cccc(C)c3)nc12")
104

1: CCCOc1nc(CN2CCCC2COC)nc2oc(-c3cccc(F)c3)nc12 (centres unmarked)
2: CCCOc1nc(Cc2ccc(Cl)cc2)nc2oc(-c3cc(C)c(OCCc4c(C)noc4C)c(C)c3)nc12
Exercise: Lab note: check whether 1 or 2 shows the higher recorded % Activation (Edg-1 receptor activation in percent of the activation by 10 μM S1P). Give the label of your selection.
Key: 1

* * *

# TGT: human Edg-1 receptor (Homo sapiens, UniProt P21453)
# Construct: expressed in transfected cells; membrane preparation
# TEST: GTP-γ-S assay using human Edg-1 receptors (scintillation proximity assay, membrane preparation from CHO Flp-In cell line)
# Format: biochemical
# CONDITIONS_USED: example compound at 10 μM; relative to 10 μM S1P; GTP-γ-S SPA, human Edg-1 membranes
PROPERTY: % Activation (Edg-1 receptor activation in percent of the activation by 10 μM S1P) (%)

# example entries with known answers
>>> recorded_number("CCCOc1nc(CN2CCS(=O)(=O)CC2)nc2oc(-c3cccc(F)c3)nc12 [Example 45]")
69
>>> recorded_number("Fc1cccc(-c2nc3c(OCC4CC4)nc(CC4CCOCC4)nc3o2)c1 [Example 161]")
96
>>> recorded_number("CCCOc1nc(Cn2cnc(C)c2)nc2oc(-c3cccc(F)c3)nc12 [Example 57]")
99
>>> recorded_number("CCCOc1nc(Cc2ccc(Cl)cc2)nc2oc(-c3cc(C)c(OCC(O)CNCc4ccccc4)c(C)c3)nc12 (centres unmarked) [Example 209]")
110
>>> recorded_number("CCOc1nc(Cc2ccc(Cl)cc2)nc2oc(-c3cc(C)c(OCCCS(=O)(=O)c4ncn[nH]4)c(C)c3)nc12 [Example 295]")
100

P: CCCOc1nc(CN2CCCCC2c2nccs2)nc2oc(-c3cccc(F)c3)nc12 (centres unmarked) [Example 147]
Q: CCCOc1nc(CN2CCCCC2)nc2oc(-c3cccc(F)c3)nc12 [Example 182]
Exercise: // compare: P vs Q , metric % Activation (Edg-1 receptor activation in percent of the activation by 10 μM S1P), want the smaller Give the label of your selection.
Key: P

* * *

# TGT: human Edg-1 receptor (Homo sapiens)
# Construct: expressed in transfected cells; membrane preparation
# TEST: GTP-γ-S assay using human Edg-1 receptors (scintillation proximity assay, membrane preparation from CHO Flp-In cell line)
# Format: biochemical
# CONDITIONS_USED: example compound at 10 μM; relative to 10 μM S1P; GTP-γ-S SPA, human Edg-1 membranes; read-out: % Activation (Edg-1 receptor activation in percent of the activation by 10 μM S1P)
PROPERTY: activation at 10 µM (%)

# example entries with known answers
>>> recorded_number("CCCOc1nc(Cc2ccc(Cl)cc2)nc2oc(-c3cccc(F)c3)nc12")
98
>>> recorded_number("CCCOc1nc(Cc2ccc(C(F)(F)F)cc2)nc2oc(-c3cccc(F)c3)nc12")
65
>>> recorded_number("CCCOc1nc(Cc2ccc(Cl)cc2)nc2oc(-c3cc(C)c(OC)c(C)c3)nc12")
117

1: CCCOc1nc(Cc2ccc(Cl)cc2)nc2oc(-c3cc(C)c(OCCCN4CCOCC4)c(C)c3)nc12
2: CCCOc1nc(CN2CCOCC2)nc2oc(-c3ccc(Br)o3)nc12
3: CCCOc1nc(CCc2ccc(OC)cc2)nc2oc(-c3cccc(C)c3)nc12
Exercise: Hey, quick one: sort these by activation at 10 µM, low to high? // format: requested-order list of labels
Key: 3, 1, 2

P: CCOc1nc(Cc2ccc(Cl)cc2)nc2oc(-c3cc(C)c(OCC(O)CS(=O)(=O)c4nnc(C(C)C)[nH]4)c(C)c3)nc12 (stereo not shown)
Q: Cc1cccc(-c2nc3c(OCC4CC4)nc(Cc4ccc(Cl)cc4)nc3o2)c1
Exercise: // compare: P vs Q , metric activation at 10 µM, want the smaller Give the label of your selection.
Key: Q
(Q: 81%, P: 119%)
